- Test system: HCI-015 (organoid from a triple-negative breast cancer xenograft)
- assay.remarks: CTG-3D luminescence at 96 h relative to day-0 seeding control (ratio to day 0); higher = more growth / less cytotoxicity; PDxO 3D drug screen, 96 h, CTG-3D normalised to day-0 seeding control.
- condition.info: 0.1 µM; days in culture: 172
assay.endpoint: CTG-3D luminescence at 96 h
Write the number on its own, no unit after it.

Worked cases, answers included:
compound: O=C(O)C1(C(=O)O)CCC1.[NH2-].[NH2-].[Pt+2]
assay.system: HCI-015
CTG-3D luminescence at 96 h: 1.49
--
compound: C[C@]12CC[C@@H]3c4ccc(O)cc4C[C@@H](CCCCCCCCC[S+]([O-])CCCC(F)(F)C(F)(F)F)[C@H]3[C@@H]1CC[C@@H]2O (stereo partly specified)
assay.system: HCI-015
CTG-3D luminescence at 96 h: 0.904
--
compound: COc1cc2c(Oc3ccc4[nH]c(C)cc4c3F)ncnc2cc1OCCCN1CCCC1
assay.system: HCI-015
CTG-3D luminescence at 96 h: 1.47
--
compound: CNC(=O)c1cccc(-c2ccc3c(N4CCOC[C@@H]4C)nc(N4CCOC[C@@H]4C)nc3n2)c1
assay.system: HCI-015
CTG-3D luminescence at 96 h: 0.997
--
compound: CC(=O)O[C@H]1C(=O)[C@@]2(C)[C@H]([C@H](OC(=O)c3ccccc3)[C@]3(O)C[C@H](OC(=O)[C@H](O)[C@@H](NC(=O)c4ccccc4)c4ccccc4)C(C)=C1C3(C)C)[C@]1(OC(C)=O)CO[C@@H]1C[C@@H]2O
assay.system: HCI-015
CTG-3D luminescence at 96 h: 0.629

Please examine the following record next.
Noted for COc1cccc2c1C(=O)c1c(O)c3c(c(O)c1C2=O)C[C@@](O)(C(=O)CO)C[C@@H]3O[C@H]1C[C@H](N)[C@H](O)[C@H](C)O1 : its CTG-3D luminescence at 96 h reads 0.657
